Origin of the recorded values: the RNAGym collection of RNA variant scans (doi:10.7554/elife.90254)

B1: OR4K15 (parent)
chain: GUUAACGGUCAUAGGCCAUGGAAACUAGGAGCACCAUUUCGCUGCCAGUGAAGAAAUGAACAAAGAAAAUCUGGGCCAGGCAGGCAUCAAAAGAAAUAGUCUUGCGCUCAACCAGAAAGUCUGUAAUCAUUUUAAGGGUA

Variants of: B1
assay info: self-cleavage, relative activity (ratio to wild type); higher = more cleavage; in vitro, sequencing; the parent is a self-cleaving ribozyme
Group membership follows self-cleavage per the scheme b0: < 0.3; b1: ≥ 0.3 and < 1; b2: ≥ 1

[
  {
    "chain": "GUUAACGGUCAUAGGCCAUGGAAGCUAGGAGCACCAUUUCGCUGCCAGUGAAGAAAUGAACAAAGAAAAUCUGGGCCAGGCAGGCAUCACAAGAAAUAGUCUUGCGCUCAACCAGAAAGUCUGUAAUCAUUUUAAGGGUA [A24G A90C]",
    "label class": "b1"
  }
]

Kindly review the next variant as well.
Challenge: State the class of the variant shown: GUUAACGGUCAUAGGCCAUGGAAACUAGGAGCACCAUUUCGCUGCCAGUGAAGAAAUGAACAAAGAAAAUCUGGGCCAGGCAGGCAUCAAAAGGAAAAGUCUUGCGCUCAACCAGAAAGUCUGUAAUCAUUUUAAGGGUA [A94G U97A]
Response given: b2
